Assign Papp A→B to each entry below.
Test: Caco-2 cell monolayers intrinsic permeation assay in the presence of efflux inhibitors
Assay type: in vitro ADME
Conditions: Caco-2, with efflux inhibitors
Express the result in ×10⁻⁶ cm/s but write the number alone.

Looking up CC(C)N(C(=O)c1cc(F)ccc1-n1cc(C(=O)[C@@H]2CCN(C(=O)[C@H]3N[C@@H]4CC[C@H]3C4)C2)c2ccncc21)C(C)C , I found its Papp A→B recorded as 0.3

Briefly, Papp A→B measured for CC(C)(F)c1ncccc1-c1cc(F)ccc1-n1cc(C(=O)C2CN(C(=O)[C@H]3N[C@@H]4CC[C@H]3C4)C2)c2ccncc21 : 1.7

Value of Papp A→B reported for the compound CC(C)N(C(=O)c1cc(F)ccc1-n1cc(C(=O)[C@H]2CCN(C(=O)[C@H]3N[C@@H]4CC[C@H]3C4)C2)c2ccncc21)C(C)C is 0.4
